System: PXR homodimer (NR concentration 270 nM)
method: PBM binding z-score (relative to random genomic background probes); higher = stronger binding; sequences stand for … in GC…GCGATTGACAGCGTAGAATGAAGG
For each of the sequences below, state its PBM binding z-score.
# output: bare number, no unit

GET /values?readout=PBM binding z-score&item= `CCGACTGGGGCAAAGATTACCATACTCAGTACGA`
-0.342

Lookup `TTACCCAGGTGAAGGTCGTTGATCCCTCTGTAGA`
0.0205

Lookup `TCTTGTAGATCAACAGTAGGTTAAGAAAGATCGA`
-0.303

Lookup `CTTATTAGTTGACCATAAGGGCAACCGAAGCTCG`
0.516

Lookup `ATCGAAAGCTCGAGGTGAGTATAGAGAAAGGGAA`
-0.567

Lookup `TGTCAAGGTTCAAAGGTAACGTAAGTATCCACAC`
0.595

Lookup `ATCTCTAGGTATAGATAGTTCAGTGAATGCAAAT`
0.855

Lookup `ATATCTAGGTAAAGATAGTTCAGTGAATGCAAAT`
0.584

Lookup `CCGACTGGGGCAAGGTTACAATAACGCACAGCCA`
-0.113

Lookup `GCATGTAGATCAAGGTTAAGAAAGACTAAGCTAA`
-0.179

Lookup `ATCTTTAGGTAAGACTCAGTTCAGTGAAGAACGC`
1.56

Lookup `CCTACTGCGCCATTCAGAGGTCATTGATCATATG`
2.44

Data provenance is the supplement of paper PMC6555819.
